# assayDetails: In vivo pharmacokinetic study (absorption and excretion in dogs)
# Parameters: species or system beagles
# conditions: beagle, dog, po, 10 mg/kg; male beagles, per os, 10 mg/mL/kg in 0.5% methyl cellulose, serum
propertyMeasured: half-life (h)
Express your answer in h, writing the number without its unit.

Query string: Please indicate half-life recorded for `CNC1CN(c2c(F)cc3c(=O)c(C(=O)O)cn(-c4nc(N)c(F)cc4F)c3c2Br)C1`
Result string: 2

Query string: Give reported half-life value for `CCNC1CN(c2c(F)cc3c(=O)c(C(=O)O)cn(-c4nc(N)c(F)cc4F)c3c2Br)C1.O=C(O)/C=C\C(=O)O`
Result string: 4.8

Query string: Identify measured half-life corresponding to `CCNC1CN(c2c(F)cc3c(=O)c(C(=O)O)cn(-c4nc(N)c(F)cc4F)c3c2Br)C1`
Result string: 3.8
